// pIC50 lookup, one value per entry
Assay: Cytotoxicity against human MCF-7TN-R cells assessed as reduction in cell viability after 24 hrs by MTT assay
Type: functional, cell-based
Here pIC50 is given on a logarithmic scale as minus log10 of the concentration in mol/L.

Answered examples (10):
{"substance.smiles": "CCCCCCCCCCCCCCNC(=O)[C@H](CO)/N=C/c1cccc(Cl)c1", "pIC50": 4.62}
{"substance.smiles": "CCCCCCCCCCCCCCNC(=O)[C@H](CO)/N=C/c1ccc(C)cc1", "pIC50": 3.99}
{"substance.smiles": "CCCCCCCCCCCCCCNC(=O)[C@H](CO)/N=C/c1ccccc1O", "pIC50": 4.72}
{"substance.smiles": "CCCCCCCCCCCCCCNC(=O)[C@H](CO)/N=C/c1ccccc1[N+](=O)[O-]", "pIC50": 4.66}
{"substance.smiles": "CCCCCCCCCCCCCCNC(=O)[C@H](CO)/N=C/c1ccc([N+](=O)[O-])cc1", "pIC50": 3.66}
{"substance.smiles": "CCCCCCCCCCCCCCNC(=O)[C@H](CO)/N=C/c1ccccc1", "pIC50": 5.12}
{"substance.smiles": "CCCCCCCCCCCCCCNC(=O)[C@H](CO)NCc1ccccc1[N+](=O)[O-]", "pIC50": 4.53}
{"substance.smiles": "CCCCCCCCCCCCCCNC(=O)[C@H](CO)/N=C/c1cccc(OC)c1", "pIC50": 4.51}
{"substance.smiles": "CCCCCCCCCCCCC/C=C/[C@@H](O)[C@H](CO)NC(=O)CCCCCCC", "pIC50": 5.07}
{"substance.smiles": "CCCCCCCCCCCCCCNC(=O)[C@H](CO)/N=C/c1ccc(O)cc1", "pIC50": 4.71}

-- ask Answer with reported pIC50 of CCCCCCCCCCCCCCNC(=O)[C@H](CO)/N=C/c1ccccc1C
-- reply 4.06

-- ask Answer with reported pIC50 of CCCCCCCCCCCCCCNC(=O)[C@H](CO)NCc1ccccc1OC
-- reply 4.00

-- ask Answer with reported pIC50 of CCCCCCCCCCCCCCNC(=O)[C@H](CO)/N=C/c1cccc([N+](=O)[O-])c1
-- reply 3.98

-- ask Answer with reported pIC50 of CCCCCCCCCCCCCCNC(=O)[C@H](CO)/N=C/c1cccc(O)c1
-- reply 4.49

====

Test: Cytotoxicity against human MCF-7TN-R cells assessed as reduction in cell viability after 24 hrs by MTT assay
Format: functional, cell-based
recorded.endpoint: pIC50
Here pIC50 is given on a logarithmic scale as minus log10 of the concentration in mol/L.

Answered examples (2):
{"substance.smiles": "CCCCCCCCCCCCCCNC(=O)[C@H](CO)/N=C/c1ccc(OC)cc1", "data.value": 4.55}
{"substance.smiles": "CCCCCCCCCCCCCCNC(=O)[C@H](CO)/N=C/c1ccccc1OC", "data.value": 4.90}

-- ask Answer with reported pIC50 of CCCCCCCCCCCCCCNC(=O)[C@H](CO)NCc1ccccc1O
-- reply 4.12

-- ask Answer with reported pIC50 of CCCCCCCCCCCCCCNC(=O)[C@H](CO)NCc1ccccc1Cl
-- reply 4.36

-- ask Answer with reported pIC50 of CCCCCCCCCCCCCCNC(=O)[C@H](CO)/N=C/c1ccc(Cl)cc1
-- reply 4.56

-- ask Answer with reported pIC50 of CCCCCCCCCCCCCCNC(=O)[C@H](CO)/N=C/c1ccccc1Cl
-- reply 4.99

-- ask Answer with reported pIC50 of CCCCCCCCCCCCCCNC(=O)[C@H](CO)/N=C/c1cccc(C)c1
-- reply 4.08
